Hi there, I'd appreciate the recorded composite z-score for every entry that follows.
Test system: Human papillomavirus type 1a E7 protein (residues 1-88)
assay.summary: HPV1a E7 small-molecule binders, primary screen, biochemical, small-molecule microarray, residues 1-88, 635 nm (AID 1129)
assay.context: small-molecule microarray binding, fluorescence 635 nm; higher = more signal
No unit in the answer, please; the number alone is enough.

*Q* What measured composite z-score goes with COc1ccc(C#Cc2ccc3c(c2)[C@]2(C(=O)N3)[C@H](C(=O)N3CCCCCCC3)[C@H]3C(=O)O[C@H](c4ccccc4)[C@H](c4ccccc4)N3[C@@H]2c2ccc(O)cc2)cc1 ?
*A* 1.21

*Q* Do the same for NCCCCCNC(=O)[C@H]1C[C@H]2C(=O)N[C@@H](Cc3ccccc3)C(=O)N2[C@H]1c1ccc(O)cc1 please
*A* 0.756

*Q* Can you check COc1ccc([Si](C)(C)[C@H]2[C@H](CC(=O)N3Cc4ccccc4C[C@H]3CO)O[C@@]3(C(=O)N(Cc4ccc(N5C(=O)c6cccc7cccc5c67)cc4)c4ccccc43)[C@@H]2C)cc1 next?
*A* 1.15

====

tgt: Concanavalin-A (Canavalia ensiformis)
assay.summary: ConA small-molecule binders, primary screen, artefact control for SMM control protein annotation, biochemical, small-molecule microarray, Alexa647 label, 635 nm (AID 1127);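 note: z combines 667 nm emission intensity with signal-to-noise across three replicate slides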
assay.context: ConA-A647 binding fluorescence, higher = more signal
Could you label it class 1 if measured composite z-score is 1 or higher, and class 0 otherwise?

*Q* Does NC(=O)[C@H]1[C@@H]2C(=O)O[C@@H](c3ccccc3)[C@@H](c3ccccc3)N2[C@@H](c2ccc(O)cc2)[C@]12C(=O)Nc1ccccc12 have a reported composite z-score of at least 1?
*A* class 0

*Q* Next entry: O=C1C2C=CC(C(O)c3ccc(I)cc3)N(Nc3ccccc3)C2C(=O)N1c1ccccc1 (stereo not given)
*A* class 1

*Q* What about this compound? CCOC(=O)C=Cc1ccccc1O
*A* class 0

*Q* What do you get for COc1ccc(NC(=O)O[C@H]2[C@@H]3OC(=O)[C@H](Cc4cccc(Br)c4)C/C=C/C[C@@H](Cc4cccc(Br)c4)C(=O)O[C@H]3[C@@H](OC)O[C@@H]2CO)cc1 ?
*A* class 0

*Q* What about C=CCC(OC(C)=O)[C@@H]1[C@@H](N(Cc2cc3ccccc3o2)C(=O)c2ccc(-c3ccccc3)cc2)c2cc(OCCCO)ccc2N1C(=O)Cc1ccc(OC)cc1 (stereo not given in full) ?
*A* class 0

*Q* Also need CCOC(=O)C1=C[C@@H](C(C)(C)C)N(S(=O)(=O)c2ccc(C)cc2)[C@H]1c1ccc(C)cc1 , thanks.
*A* class 1

*Q* Query COc1cc(C(O)C2C=CC3C(=O)N(Cc4ccccc4)C(=O)C3N2n2cnnc2)cc(OC)c1OC (stereo not given) next
*A* class 0

*Q* Would you mind doing Cc1ccc(C(C)CC(O)C2C=CC3C(=O)N(c4ccccc4)C(=O)C3N2Nc2ccc(C#N)cc2)o1 (stereo not given) as well?
*A* class 1

*Q* Same read-out for COCCOC(=O)N1C(=O)[C@@]2(c3ccccc31)[C@H](c1ccccc1OCCO)N1[C@H](c3ccccc3)[C@H](c3ccccc3)OC(=O)[C@H]1[C@@H]2C(N)=O ?
*A* class 1

*Q* Moving on to the next compound: C[C@]1(C(=O)NCC(F)(F)F)c2ccccc2C(=O)N(Cc2ccccc2)[C@H]1c1ccc(CO)cc1
*A* class 0

*Q* // same read-out, input: [N-]=[N+]=Nc1ccccc1[C@@H]1OC(c2ccc(OCCCO)cc2)=N[C@]1(Cc1ccccc1)C(=O)NCc1ccccc1
*A* class 1

*Q* # repeat for COc1ccc([Si](C)(C)[C@@H]2[C@@H](CC(=O)N3Cc4ccccc4C[C@H]3CO)O[C@]3(C(=O)N(c4ccccc4)c4ccccc43)[C@H]2C)cc1
*A* class 0

*Q* Could you do the same for O=c1cccc(-c2ccco2)o1 , please?
*A* class 0

*Q* Please answer likewise for CCN(CC)c1ccc(N2CC=CC34O[C@@H]5/C=C\CCC(C)OC(=O)C5[C@H]3C(=O)N(C(C)CO)[C@@H]4C2=O)cc1 (stereo not given in full)
*A* class 0

*Q* And then CCOC(=O)C[C@H]1[C@H](OC(=O)c2ccccc2-c2ccccc2)[C@@H](NC(=O)c2ccc3ccccc3n2)c2cc(OCCCO)ccc2N1C(=O)c1ccccc1 , what is it?
*A* class 0

====

assay.summary: compound binding in COS7 lysate, probe aLAP1, primary screen, cell lysate, small-molecule microarray (AID 1124);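 note: lysate comes from COS7 cells expressing LAP1 and is applied at 0.3 µg/mL; score merges spot fluorescence near 667 nm with signal-to-noise over triplicate slides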
assay.context: probe aLAP1, fluorescence, higher = more signal
observed.property: composite z-score
Answer with a number only.

*Q* Could you share which composite z-score value was measured for CC(C)N1CC=CC23O[C@@H]4/C=C\CCCOC(=O)C4[C@H]2C(=O)N(CCCCCCO)[C@@H]3C1=O (some centres not stated) ?
*A* 1.14

*Q* Again, but for C=C[C@@H](OC)[C@H](OC(=O)Nc1ccc(SC)cc1)c1ccc(OCCO)cc1
*A* 0.35

*Q* One more compound: COCC1C2CC[C@H]3C(OCc4ccc(OC)cc4)OC[C@]4(C)[C@H]3C2=C(CN4C(=O)OC(C)(C)C)[C@H](C)C1COC (some centres not stated)
*A* 0.534

*Q* Query O=C(CS)NCCCCCNC(=O)[C@@H]1C[C@@H]2C(=O)N[C@@H](Cc3ccccc3)C(=O)N2[C@@H]1c1cccc(OCCO)c1 next
*A* 0.426

*Q* Then this compound: O=C1OCCC=C[C@H]2OC34C=CCN(c5ccc(Cl)cc5)C(=O)[C@H]3N(CCCCCCO)C(=O)[C@@H]4C12 (some centres not stated)
*A* -0.256

*Q* Please answer likewise for COCCOC(=O)N1C(=O)[C@@]2(c3cc(C#CCCO)ccc31)[C@H](c1ccccc1OCCO)N1[C@H](c3ccccc3)[C@H](c3ccccc3)OC(=O)[C@H]1[C@@H]2C(=O)N1CCCCCCC1
*A* 0.796

*Q* Okay, and Cc1nc2cc(Br)ccc2c(=O)n1Cc1cccc(O)c1 ?
*A* 1.09

====

assay.summary: small-molecule microarray binders of probe aCHRDL2, primary screen, biochemical, biotinylated probe, 635/667 nm fluorescence (AID 1100)
assay.context: higher = more signal
Classification field: y = composite z-score at or over 0.5; n = composite z-score under 0.5.

*Q* Kindly determine if composite z-score recorded for COc1ccc([Si](C)(C)[C@H]2[C@H](CCO)O[C@@]3(C(=O)N(Cc4ccc(N5C(=O)c6ccccc6Oc6ccccc65)cc4)c4ccccc43)[C@@H]2C)cc1 is above or exactly 0.5.
*A* n

*Q* Further, for CC(C)C[C@@H]1NC(=O)[C@H]2C[C@@H](C(=O)NCCCCCN)[C@@H](c3cccc(OCCO)c3)N2C1=O ?
*A* n

*Q* Do the same for COCCOC(=O)N1C(=O)[C@@]2(c3ccccc31)[C@H](c1ccccc1OCCO)N1[C@H](c3ccccc3)[C@H](c3ccccc3)OC(=O)[C@H]1[C@@H]2C(=O)N1CCCCCCC1 please
*A* y

*Q* Please do the same for [N-]=[N+]=NCc1ccccc1C[C@]1(C(=O)N2CCOCC2)COC(c2ccc(OCCCO)cc2)=N1 as well.
*A* y

*Q* Then this compound: CC(C)(C)OC(=O)CC[C@]1(C(=O)N2CCCCC2)COC(c2ccc(OCCCO)cc2)=N1
*A* n

*Q* Another: COC(=O)[C@@]1(Cc2ccccc2CN=[N+]=[N-])N=C(c2ccc(OCCCO)cc2)O[C@H]1c1ccccc1
*A* y

*Q* Can you handle COCCOC(=O)N1C(=O)[C@@]2(c3cc(C#CC4(O)CCCCCC4)ccc31)[C@H](C(=O)N1CCN(c3ncccn3)CC1)[C@H]1C(=O)O[C@H](c3ccccc3)[C@H](c3ccccc3)N1[C@@H]2c1ccccc1OCCO next?
*A* n

*Q* Input CCOC(=O)C[C@H]1[C@H](OC(=O)c2ccccc2-c2ccccc2)[C@@H](NC(=O)c2ccccc2)c2cc(OCCCO)ccc2N1C(=O)c1ccccc1
*A* n

*Q* Repeat with COC(=O)C(CC#Cc1ccc2c(c1)[C@]1(C(=O)N2)[C@H](c2ccc(O)cc2)N2[C@H](c3ccccc3)[C@H](c3ccccc3)OC(=O)[C@H]2[C@@H]1C(=O)N1CCCCCCC1)C(=O)OC
*A* y

*Q* # repeat for COCCOC(=O)N1C(=O)[C@@]2(c3cc(C#CCC(C(=O)OC)C(=O)OC)ccc31)[C@H](c1ccc(OCCO)cc1)N1[C@H](c3ccccc3)[C@H](c3ccccc3)OC(=O)[C@H]1[C@@H]2C(=O)Nc1nc2ccccc2s1
*A* n

*Q* Another compound to look at: CC(=O)NCCCC[C@@H]1NC(=O)[C@@H]2C[C@H](C(=O)NCCCCCCN)[C@H](c3cccc(OCCO)c3)N2C1=O
*A* y

*Q* Please do the same for CCCC=C(CCC)[C@@H](NC(=O)CCc1ccccc1)c1ccc(C(F)(F)F)cc1 as well.
*A* y

*Q* Continue with COC(=O)C1=CC(CCCO)=CC(C)N(Cc2cccc(OC(F)(F)F)c2)C=C1C(=O)OC (stereo not drawn)
*A* n
